assayed_target: T1, His6-tagged human KRas Isoform 4B (residues 1-169) (human, UniProt P01116-2 1-169)
T1 construct: Expressed in E. coli BL21(DE3), purified on Ni-NTA; also called KRas protein; WT KRas protein; not shown: His6 tag from the PQE80 vector
run_description: multi-well sandwich ELISA; ligand on Neutravidin plate, KRas 0-300 µM; footnote b: poorly resolved
Ends that are not written are not given here.
measured_endpoint: EC50 (µM)
// return numeric value only (unit: µM, not printed)

binder	measurement_units	EC50
HGIVG (triazole (positions not given here); not fully specified (bridges); also: 1,4-triazole macrocycle, ring places not given here, propargylglycine click handle, place not given here, biotinylated (biotin NovaTag resin), site not given here, It is one of two HPLC fractions of the same mass; also called HGIVG f1) [L1a]	µM	1.65
VTVPY (triazole (positions not given here); not fully specified (bridges); also: macrocycle closed by 1,4-triazole, propargylglycine click handle, other ring residues not given here, also called VTVPY) [L6]	µM	159
EGVPV (triazole (positions not given here); not fully specified (bridges); also: macrocycle closed by 1,4-triazole, propargylglycine click handle, other ring residues not given here, also called EGVPV) [L2]	µM	33.2

// query Return the recorded EC50 value; entry: HGIVG (triazole (positions not given here); not fully specified (bridges); also: 1,4-triazole macrocycle, ring places not given here, propargylglycine click handle, place not given here, biotinylated (biotin NovaTag resin), site not given here, Second HPLC fraction; also called HGIVG f2) [L1b]
// result 0.76

// query Specify EC50 for VEVYP (triazole (positions not given here); not fully specified (bridges); also: 1,4-triazole macrocycle, ring places not given here, propargylglycine click handle, place not given here, biotinylated (biotin NovaTag resin), site not given here, also called VEVYP f1) [L5a] and stop.
// result 3.72
